Assay: Half life in rat at 3 mg/kg, iv
Type: ADME, organism-based
Details: in vivo
result_type: half-life (h)
Provide only the numeric value, understood in h.

Endpoint output: half-life of `Cc1cc(C(F)(F)F)cc(N2C(=O)[C@@H](O)[C@@H](O)[C@H]2C(=O)N(C)c2ccc(F)c(Cl)c2)n1` . Value?
1.3

* * *

The reader will find reported pKd values listed item by item below.
Biological target: DNA polymerase theta (Homo sapiens, UniProt O75417)
Sequence (O75417 whole entry): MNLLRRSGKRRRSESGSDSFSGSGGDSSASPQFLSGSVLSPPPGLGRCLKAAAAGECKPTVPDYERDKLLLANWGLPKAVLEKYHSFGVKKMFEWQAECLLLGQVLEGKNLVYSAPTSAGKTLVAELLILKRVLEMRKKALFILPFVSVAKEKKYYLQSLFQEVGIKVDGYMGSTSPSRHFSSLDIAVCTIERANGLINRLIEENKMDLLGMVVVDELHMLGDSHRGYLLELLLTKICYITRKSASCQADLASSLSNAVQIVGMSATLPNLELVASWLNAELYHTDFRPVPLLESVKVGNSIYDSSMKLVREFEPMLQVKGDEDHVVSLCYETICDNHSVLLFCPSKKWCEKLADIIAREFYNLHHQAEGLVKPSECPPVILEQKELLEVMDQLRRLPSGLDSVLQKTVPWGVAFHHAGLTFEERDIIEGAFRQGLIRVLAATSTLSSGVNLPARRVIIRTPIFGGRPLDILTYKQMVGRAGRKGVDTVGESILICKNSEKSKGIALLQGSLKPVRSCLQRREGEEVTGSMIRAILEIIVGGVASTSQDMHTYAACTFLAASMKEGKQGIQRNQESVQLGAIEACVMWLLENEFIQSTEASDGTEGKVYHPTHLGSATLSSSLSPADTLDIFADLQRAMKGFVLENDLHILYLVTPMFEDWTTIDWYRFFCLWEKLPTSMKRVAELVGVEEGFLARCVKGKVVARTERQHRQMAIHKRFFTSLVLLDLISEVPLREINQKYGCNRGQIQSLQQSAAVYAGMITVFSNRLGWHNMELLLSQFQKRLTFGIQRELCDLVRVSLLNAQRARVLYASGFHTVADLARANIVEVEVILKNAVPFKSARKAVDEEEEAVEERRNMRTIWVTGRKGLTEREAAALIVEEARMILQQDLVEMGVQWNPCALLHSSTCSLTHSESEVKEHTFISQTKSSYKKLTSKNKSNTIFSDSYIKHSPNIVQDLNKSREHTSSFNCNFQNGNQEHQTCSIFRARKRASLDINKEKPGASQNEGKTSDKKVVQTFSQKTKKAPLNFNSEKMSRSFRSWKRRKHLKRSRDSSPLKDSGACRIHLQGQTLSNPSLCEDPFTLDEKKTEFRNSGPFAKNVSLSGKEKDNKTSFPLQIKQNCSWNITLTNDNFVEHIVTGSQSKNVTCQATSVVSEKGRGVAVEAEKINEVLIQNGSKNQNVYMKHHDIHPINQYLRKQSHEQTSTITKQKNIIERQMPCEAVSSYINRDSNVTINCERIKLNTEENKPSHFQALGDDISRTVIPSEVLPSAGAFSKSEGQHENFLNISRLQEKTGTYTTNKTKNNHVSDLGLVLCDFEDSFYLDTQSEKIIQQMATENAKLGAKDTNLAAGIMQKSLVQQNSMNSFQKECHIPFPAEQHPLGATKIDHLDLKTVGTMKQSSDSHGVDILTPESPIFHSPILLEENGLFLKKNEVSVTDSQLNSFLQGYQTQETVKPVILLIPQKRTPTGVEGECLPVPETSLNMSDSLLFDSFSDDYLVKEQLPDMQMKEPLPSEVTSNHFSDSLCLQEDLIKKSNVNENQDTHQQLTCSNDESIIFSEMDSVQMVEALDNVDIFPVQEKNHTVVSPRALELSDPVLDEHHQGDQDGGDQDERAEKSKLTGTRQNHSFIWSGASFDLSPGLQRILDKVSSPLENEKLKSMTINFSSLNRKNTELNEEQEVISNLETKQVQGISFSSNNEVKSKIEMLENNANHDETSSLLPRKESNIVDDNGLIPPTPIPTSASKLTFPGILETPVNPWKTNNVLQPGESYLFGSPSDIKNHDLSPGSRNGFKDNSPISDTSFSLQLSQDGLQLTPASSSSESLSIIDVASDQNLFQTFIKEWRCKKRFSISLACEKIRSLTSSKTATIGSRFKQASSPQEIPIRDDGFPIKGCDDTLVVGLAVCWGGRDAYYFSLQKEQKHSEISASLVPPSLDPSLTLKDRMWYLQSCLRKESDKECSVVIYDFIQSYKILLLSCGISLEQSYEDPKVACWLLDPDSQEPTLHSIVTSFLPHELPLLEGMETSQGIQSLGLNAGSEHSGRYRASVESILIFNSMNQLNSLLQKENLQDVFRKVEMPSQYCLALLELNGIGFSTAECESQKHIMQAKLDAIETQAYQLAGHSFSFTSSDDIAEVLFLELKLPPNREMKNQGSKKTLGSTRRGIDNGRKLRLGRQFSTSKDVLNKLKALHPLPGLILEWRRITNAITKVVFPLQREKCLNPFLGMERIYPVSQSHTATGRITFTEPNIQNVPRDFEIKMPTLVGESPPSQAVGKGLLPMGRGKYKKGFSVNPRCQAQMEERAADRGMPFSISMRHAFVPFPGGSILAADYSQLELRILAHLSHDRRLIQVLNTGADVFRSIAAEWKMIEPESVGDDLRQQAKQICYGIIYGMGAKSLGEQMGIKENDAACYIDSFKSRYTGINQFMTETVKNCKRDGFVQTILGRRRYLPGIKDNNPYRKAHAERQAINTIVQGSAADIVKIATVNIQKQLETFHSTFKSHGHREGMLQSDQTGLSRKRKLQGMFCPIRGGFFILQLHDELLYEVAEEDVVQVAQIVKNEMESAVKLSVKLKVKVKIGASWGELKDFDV
Experiment: Displacement of tracer from recombinant Tb-labeled DNA polymerase theta (unknown origin) assessed as end point Kd using DNA as substrate preincubated for 30 mins followed by compound addition for 2 hrs by HTRF assay
pKd is defined as minus the log10 of a concentration measured in mol/L.

Answered examples (6):
Cc1cccc(N(C)C(=O)[C@@H]2[C@@H](O)CCN2c2nc(C)cc(C(F)(F)F)c2C#N)c1    7.38
Cc1cccc(N(C)C(=O)[C@@H]2[C@H](O)CCN2c2nc(C)cc(C(F)(F)F)c2C#N)c1    8.19
Cc1cc(C(F)(F)F)c(C#N)c(N2C[C@@H](O)C[C@H]2C(=O)N(C)c2ccccc2)n1    6.96
CCN(C(=O)COc1nc(C)cc(C)c1C#N)c1cccc(C)c1    6.09
Cc1cccc(N(C)C(=O)[C@@H]2C[C@H](O)CN2c2nc(C)cc(C)c2C#N)c1    7.29
CCN(C(=O)COc1nc(C)cc(C(F)(F)F)c1C#N)c1cccc(C)c1    7.21

Continue with the compound presented below.
Endpoint output: pKd of `CCN(C(=O)[C@H](CO)Nc1nc(C)cc(C(F)(F)F)c1C#N)c1cccc(C)c1` . Value?
7.46
